// data source = PubChem BioAssay

Listing: inhibition of aggregation of selected compounds
assay: inhibitors of mutant huntingtin aggregation, primary screen, imaging, exon1htt(103Q)mCFP cells, high-content imaging (AID 483); settings: exon1htt(103Q)mCFP cell line, aggregate imaging, at 2 µM; stronger effect = higher value;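 also: compound exposure lasted 3 days before fixation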
Activity calls are given as the source filed them.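 The calls were made as follows: active = visual image review flags a hit and inhibition of aggregation exceeds 20%; inconclusive = visual hit but inhibition at or below 20%; inactive = no hit on visual image review.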 Where a SMILES comes first, the peptide text is derived from it. The star is where a group is joined. Boc = CC(C)(C)OC(=O)*
measurement_label: inhibition of aggregation

compound=CS(=O)(=O)N1CCC(C(=O)NCCC2=CCCCC2)CC1 result="8% (inactive)"
compound=Cc1nnc(SCC(=O)Nc2sc3c(c2C#N)CCCC3)[nH]c1=O result="-12.9% (inactive)"
compound="COc1ccc(N2C(=O)CCC(C(=O)N3CCCCC3)C2c2ccc(OC)c(OC)c2)cc1 (stereo not given)" result="21.6% (inactive)"
compound=CCCc1ccc(S(=O)(=O)NCCc2ccncc2)cc1 result="-25.5% (inactive)"
compound=Cc1ccccc1Cn1cc(/C=N/n2cnnc2)c2ccccc21 result="18.9% (inactive)"
compound=CCOC(=O)C1=C(O)CCn2c1nc1ccccc12 result="14.2% (inactive)"
compound="CC(C)(C)OC(=O)N1CCCC1C(=O)NC(Cc1ccccc1)C(=O)O (stereo not drawn) (Boc-Pro-Phe-OH; configuration not given here)" result="4.3% (inactive)"
compound=c1ccc(-c2oc3ncnc(NCCN4CCOCC4)c3c2-c2ccccc2)cc1 result="-1.8% (inactive)"
compound="O=C(CN(CCc1ccccc1)C(=O)CNS(=O)(=O)c1ccccc1)NCC1CCCO1 (stereo not given)" result="-13.1% (inactive)"
compound=COc1ccc(-n2c(=O)[nH]cc(C(=O)Nc3ccc(NC(C)=O)cc3)c2=O)cc1 result="22.1% (inactive)"
